The measurements presented in this section are drawn from a melting point compilation (Tetko et al.; mined from patent text by program, amines drawn as free bases though some values may be those of a salt).

parameter-measured: melting point

{"columns": ["molecule", "parameter-measured", "result"],
 "data": [
  ["Cc1ccc(O)c(Cn2c(NC3CCNC(CCN4CCOCC4)C3)nc3ccc(C=Cc4ccccc4)cc32)n1 (centres undefined)", "melting point", "224 °C"],
  ["CCOC(=O)/C=C/c1cn(-c2ccccc2)nc1OCc1ccc(OCc2nc(-c3ccco3)oc2C)c(OC)c1", "melting point", "177 to 178 °C"],
  ["Cn1nc2c(N)nc3ccccc3c2c1CC(C)(C)C", "melting point", "254 to 255 °C"],
  ["CC(C)S(=O)(=O)C(C#N)=CC=CN(C)C", "melting point", "102 to 104 °C"]
]}

---

parameter-measured: melting point

{"columns": ["molecule", "parameter-measured", "result"],
 "data": [
  ["CC1(C)CCC(C)(C)c2cc(-c3cc4ccc(C(=O)O)cc4s3)ccc21", "melting point", "297 °C"],
  ["CCCCCCCCC(Oc1ccc(C(=O)CCCCCCC)cc1)C(=O)O (racemic)", "melting point", "45 to 47 °C"],
  ["CCCC12CCC(c3ccc(Cl)cc3)(OC1)OC2", "melting point", "94 °C"],
  ["CCNc1cc2ccc(OC)c(OC)c2c2cc(C)ccc12", "melting point", "100 to 102 °C"],
  ["COc1cc2oc(=O)c(CCO)c(C)c2c(OC)c1OC", "melting point", "95 to 97 °C"],
  ["CS(=O)(=O)c1ccc(-c2c(-c3ccc(F)cc3)nc3sccn23)cc1", "melting point", "184 to 185 °C"],
  ["COc1ccc(C2(c3cccc(C(Cc4ccccc4)Cc4ccccc4)n3)OCCCO2)cc1OC", "melting point", "124 °C"],
  ["COc1ccc(CSc2nnc(-c3ccc4c(c3)CCO4)o2)cc1F", "melting point", "121 to 122 °C"],
  ["CCCCNC(=O)Nc1ncc(-c2ccncc2)cn1", "melting point", "204 to 206 °C"],
  ["CCOCc1nc2ncc(C)nc2c(=O)[nH]1", "melting point", "181 to 183 °C"],
  ["Nc1ncnc2c1ncn2Cc1oc2ccc(Br)cc2c(=O)c1-c1ccccc1F", "melting point", "231 to 233 °C"],
  ["CC(C)(C)NC(=O)[C@@H]1[C@H](O)CCN1C(=O)[C@@H](O)[C@H](Cc1ccccc1)NC(=O)[C@H](CC(N)=O)NC(=O)OCc1ccccc1", "melting point", "109 to 112 °C"],
  ["O=C1CCC2=C(c3ccccc3)c3cc(Cl)ccc3C2N1 (stereo not drawn)", "melting point", "234 to 238 °C"]
]}

---

Each entry below carries its recorded melting point.

{"columns": ["compound-structure", "melting point"],
 "data": [
  ["N#Cc1nn(-c2ccccc2)c(OC(F)F)c1CO", "71 to 72 °C"],
  ["Cc1nc(-c2ccc(Cl)cc2)n(-c2ccc(S(N)(=O)=O)cc2)n1", "247 to 249 °C"],
  ["CC(C)(C)c1nc2cc(N3CCCCC3)c(N=C=S)cc2s1", "112 to 114 °C"]
]}

---

{"columns": ["compound", "melting point"],
 "data": [
  ["CC1NC(=O)NN=C1c1ccc2c(c1)CCC(=O)N2CCO (stereo not drawn)", "237 to 243 °C"],
  ["CCS(=O)(=O)Nc1cc(Br)cc(Cc2c[nH]cn2)c1C", "202 to 204 °C"],
  ["Cc1oc(-c2ccccc2)nc1COc1cccc(COc2nn(Cc3ccccc3)cc2C=O)c1", "131 to 132 °C"],
  ["CCCN(CCCCc1c[nH]c2ccc(F)cc12)C1COc2c(C(N)=O)ccc(F)c2C1 (stereo not drawn)", "116 °C"],
  ["Cc1ccc(C(=O)CCCC(C)C(=O)O)cc1 (stereo not drawn)", "50 to 50.5 °C"],
  ["C1COCCOCCNCCOCCOCCOCCN1", "0 °C"],
  ["CCOC(=O)Nc1ccc2c(c1)C(c1ccccc1Cl)S(=O)(=O)CCC(=O)N2 (stereo not drawn)", "295 to 296 °C"],
  ["COc1ccc(N(CCCCCO)S(=O)(=O)c2c(F)c(F)c(F)c(F)c2F)cc1", "96 to 97 °C"],
  ["O=C(C=CCl)CCCN1C(=O)c2ccccc2C1=O", "92 °C"],
  ["Oc1cccc(-c2noc3cc(F)ccc23)c1", "144 to 145 °C"],
  ["CC(=O)C(C#N)c1ccc(F)c(Cl)c1 (stereo not drawn)", "133 to 134 °C"],
  ["CN(C)c1ccnc(N(C)C2CCN(CCCC(c3ccc(F)cc3)c3ccc(F)cc3)CC2)n1", "106 °C"],
  ["CC(C)(C)CC(C)(C)c1cc(N=Nc2cc([N+](=O)[O-])ccc2Cl)c(O)c(C(C)(C)c2ccccc2)c1", "153 to 156 °C"],
  ["Cn1cc(C(N)=O)c(=O)c2ccc(C(C)(C)C)cc21", "268 to 270 °C"],
  ["COc1ccc2ccc(OS(=O)(=O)C(F)(F)F)cc2c1", "34 °C"],
  ["CCCCN(CCCC)S(=O)(=O)NC(=O)Nc1c(C(C)C)cccc1C(C)C", "98 to 101 °C"],
  ["Cc1cc(C)cc(Sc2c(C(C)C)nc(C=NO)n2C)c1", "240 to 241 °C"],
  ["CS(=O)(=O)c1cc2[nH]c(=O)c(=O)n(C3CCCCC3)c2cc1[N+](=O)[O-]", "> 280 °C"]
]}

---

Reported melting point is given for each of the following molecules.

{"columns": ["molecule", "melting point (°C)"],
 "data": [
  ["c1cc2c(ccc3[nH]c4c(c32)CNCC4)s1", 190],
  ["COCCOc1c(C)cc(C#CC2(O)CN3CCC2CC3)cc1C (stereo not given)", 120]
]}

---

Recorded melting point for the following compounds

{"columns": ["compound", "melting point"],
 "data": [
  ["COC(=O)C(C)c1cccc2c(=O)c3ccccc3ccc12 (stereo not drawn)", "37 to 39 °C"],
  ["NCC(=O)NCc1ccc(F)cc1", "114 to 115 °C"],
  ["CC(C)(C)c1cc(C(=O)c2cc[nH]n2)cc(C(C)(C)C)c1O", "216 to 219 °C"]
]}

---

Reported melting point values are given for each entry in this list.
parameter-measured: melting point

{"columns": ["compound", "result"],
 "data": [
  ["CCCOC(Cc1ccc(OCCc2nc(C(C)(C)C)oc2C)c2ccccc12)C(=O)O (stereo unspecified)", "135 to 137 °C"],
  ["CCCn1cc(C2CCC(=O)CC2)c2cc(C#N)ccc21", "103 to 104 °C"],
  ["CC1(O)CC(=O)OC(C=Cc2cccc(OCc3ccccc3)c2)C1 (stereo unspecified)", "122 to 124 °C"],
  ["CNC1CCCN(C(=O)c2ccc(NC(=O)c3ccccc3C)s2)c2ccc(Cl)cc21 (stereo unspecified)", "213 to 216 °C"],
  ["CC(C)C[C@H]1COCC(=O)N1", "69 to 70 °C"],
  ["CCNC(=O)[C@H]1CN(c2ccc3c(c2)sc(=O)n3C)C(=O)O1", "224 to 226 °C"],
  ["COc1cc(C(=O)c2cccnc2)ccc1O", "150 to 151 °C"],
  ["CCCCCCCCCCCCC(O)CNCCCCCCNCC(O)CCCCCCCCCCCC (stereo unspecified)", "118 to 121 °C"],
  ["O=C(O)COCc1nn(-c2ccc(Cl)cc2)c2c1CCC2", "122 to 123 °C"],
  ["CC(C(=O)N(c1ccccc1)c1ccccc1)N1C(=O)c2ccccc2C1=O (racemic)", "89 °C"],
  ["C=CCc1cc(COC(=O)C(C)C)ccc1C#CC1(O)CN2CCC1CC2 (stereo unspecified)", "68 °C"],
  ["COC(=O)C1=C(CCc2ccccc2OC)NC(CC(=O)N2CCN(CC(=O)NC(C)C)CC2)=C(C(=O)OC)C1c1c(Cl)cccc1Cl (stereo unspecified)", "161 to 163 °C"],
  ["COC(=O)c1cccc(-c2cccnc2)c1", "125 to 126 °C"],
  ["O=C(O)C(c1ccc2c(c1)OCO2)n1nc(C2CC2)cc(-c2ccccc2)c1=O (stereo unspecified)", "176 °C"],
  ["CCCC12COC(c3ccc(I)cc3)(OC1)SC2", "128 to 132 °C"],
  ["N#Cc1[nH]c(=O)n(-c2ccc(Cl)cc2)c1C#N", "242 to 245 °C"],
  ["O=CNc1ccc(SC(CCc2ccc(Cl)cc2)Cn2ccnc2)cc1 (stereo unspecified)", "91 to 94 °C"],
  ["CC(=O)Nc1nc(NC(C)=O)nc(-c2ccc(Oc3ccccc3)cc2)n1", "243 to 245 °C"],
  ["COC(=O)CCS(=O)(=O)c1ccc(C=C(C)c2ccc3c(c2)C(C)(C)CCC3(C)C)cc1", "118 to 120 °C"],
  ["CCc1c(C(F)(F)F)noc1NS(=O)(=O)c1cccc2ccccc12", "135 to 137 °C"],
  ["O=C(O)c1cc(-n2c(-c3ccc(F)cc3)cc3c2CCCC3)ccc1O", "239 to 240 °C"]
]}
